Values from paper PMC5540273

Test system: HASPIN
Construct: gene GSG2
Settings: concentration: 1 μM, replicates: in singlicate; n = 1
Parameter %Inh: see the listing below.
Write the figure, then the unit, nothing else.

Here is how some molecules turned out for %Inh.
INSERT INTO assay_data (molecule, result) VALUES
  ('CCc1nc(-c2cccc(C)c2)c(-c2ccncc2)s1', '0%'),
  ('COC(=O)c1c(-c2ccccc2)c2cc(Br)ccc2c(=O)n1Cc1ccc(S(C)(=O)=O)cc1', '31%'),
  ('Nc1nccc2scc(-c3ccc4c(c3)CCN4C(=O)Cc3ccccc3)c12 [GSK2576924]', '0%'),
  ('Cc1nc(N(C)[C@H]2CN(C(=O)CC#N)CC[C@H]2C)c2cc[nH]c2n1', '0%'),
  ('O=C(NCc1cccs1)c1cc(C(=O)c2c(Cl)cccc2Cl)c[nH]1 [GW823670]', '0%'),
  ('COc1ccc(Nc2nccc(N3CCC(NS(=O)(=O)c4ccc(NC(C)=O)cc4)C3)n2)cc1 (stereo not drawn) [GSK1379729]', '19%');

// %Inh value for OCCCNc1nccc(-c2c(-c3cccc(C(F)(F)F)c3)nn3cc(C(F)(F)F)ccc23)n1 [GW630813] : 21%

%Inh recorded for this molecule, `CCc1ccc(-c2ccc3c(c2)-c2nn(C)cc2S(=O)(=O)N3C)cc1` , is 23%

%Inh measured on CCS(=O)(=O)c1ccc(OC)c(Nc2ncc(-c3ccc(F)cc3)o2)c1.Cl [GW591947] = 0%

Data point: `COc1ccc(-c2cc3c(C)nc(N)nc3n([C@H]3CC[C@H](O)CC3)c2=O)cn1` ; %Inh = 0%

Documented %Inh of `CCC(=O)c1c(-c2ccccc2)c2cc(Cl)ccc2c(=O)n1Cc1cc(C(=O)NC2CC2)n(C)n1` : 25%

###

Recorded pKd for the following compounds
System: RIPK2;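 note: kd values determined as follow-up on hits from a single-replicate KINOMEscan panel screen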
pKd: −log10 of the molar value.

INSERT INTO measurements (cpd_smiles, measured_property, result) VALUES
  ('Nc1ncnc2c1ncn2-c1cccc(F)c1', 'pKd', '< 5.00');

// next item, pKd requested
Record for `Nc1nc(-c2ccccc2F)c(-c2ccnc3ccccc23)s1` under target or system RIPK2: pKd reported as < 5.00

###

System: TXK
Settings: concentration: 1 μM, replicates: in singlicate; n = 1
Classes are defined on %Inh with ranges lo: < 3%; mid: ≥ 3% and < 10%; hi: ≥ 10%

## Task Which bin should I file `O=C(Nc1n[nH]c2nc(-c3ccccc3)c(Cl)cc12)C1CC1` under?
## Result mid

## Task Which category does the recorded %Inh put `Cc1ccccc1COc1cc(-n2cnc3cc(Cl)ccc32)sc1C(N)=O` in?
## Result mid

## Task # bin lookup: classify `Nc1nc(-c2ccccc2F)c(-c2ccnc3ccccc23)s1` by its %Inh
## Result lo

## Task Dear colleague, I would appreciate it if you could identify the bin for `O=C(Nc1n[nH]c2nc(-c3ccccc3)c(Br)cc12)C1CC1` and reply at your convenience.
## Result hi

## Task Class? Entry: `Cc1nnc(-c2ccc(C)c(-c3ccc(C(=O)O)cc3)c2)o1`
## Result lo

## Task Category of `Nc1nccc2scc(-c3ccc4c(c3)CCN4C(=O)Cc3ccccc3)c12` , please.
## Result mid

## Task Which band does `CN1C(=O)C(Nc2ccccc2)=C(c2ccccc2)C1=O` fall in?
## Result lo

###

System: PIK3CA
Conditions: concentration: 1 μM, replicates: in singlicate; n = 1
measured-property: %Inh (%)
The response must be a number in % with no trailing unit.

INSERT INTO assay_data (compound, assay_system, readout_number) VALUES
  ('COc1ccc(-c2cc3c(C)nc(N)nc3n([C@H]3CC[C@H](O)CC3)c2=O)cn1', 'PIK3CA', 99.7),
  ('CCCNC(=O)Nc1ccc(Oc2ncnc3ccn(C)c23)cc1', 'PIK3CA', 14);

Now for a further compound.
Result for `CCC(=O)c1c(-c2ccccc2)c2cc(Cl)ccc2c(=O)n1Cc1cc(S(C)(=O)=O)n(CC(F)F)n1` , tested on PIK3CA, %Inh: 0

###

System: CDC2L2
Conditions: concentration: 1 μM, replicates: in singlicate; n = 1
A collection of molecules and their measured %Inh
Answer in %, number only, no unit symbol.

For orientation, consider the following solved cases.
INSERT INTO measurements (molecule, assay_system, readout_number) VALUES
  ('CCc1ccc(-c2ccc3c(c2)-c2nn(C)cc2S(=O)(=O)N3C)cc1', 'CDC2L2', 0),
  ('COc1cc(Nc2nccc(N3CCC(NC(=O)C4COc5ccccc5O4)C3)n2)cc(OC)c1OC (centres unmarked)', 'CDC2L2', 4),
  ('COc1cccc(-n2cnc3c(N)ncnc32)c1', 'CDC2L2', 2),
  ('O=C(Nc1ccc2c(c1)OCO2)NC1CCN(c2ccnc(NCc3ccc(F)cc3)n2)CC1', 'CDC2L2', 6),
  ('COc1ccc(Nc2nccc(N3CCC(NS(=O)(=O)c4ccc(NC(C)=O)cc4)C3)n2)cc1 (centres unmarked)', 'CDC2L2', 17);

response.value for `CCn1c(-c2nonc2N)nc2ccccc21` (field: %Inh) = 29

Quick note, %Inh for `Cc1ccccc1COc1cc(-n2cnc3cc(Cl)ccc32)sc1C(N)=O` landed at 0

Form: molecule = `Nc1n[nH]c2ncc(-c3ccccc3)cc12` ; %Inh = 5

###

Test system: MUSK
Conditions: concentration: 1 μM, replicates: in singlicate; n = 1
Entries and their %Inh values follow.
Your answer is read as %, so omit the unit and give the number.

Examples from the recorded data:
INSERT INTO assay_data (compound, readout_number) VALUES
  ('CN(C)c1cc(-c2ccc3c(N)n[nH]c3c2)nc(N)n1', 0),
  ('CCC(=O)c1c(-c2ccccc2)c2cc(Cl)ccc2c(=O)n1Cc1cc(S(C)(=O)=O)n(CC(F)F)n1', 0),
  ('COC(=O)c1c(-c2ccccc2)c2cc(Br)ccc2c(=O)n1Cc1ccc(NC(=O)CCC(=O)O)cc1', 0),
  ('Cc1nnc(-c2ccc3ncn(-c4ccc(S(C)=O)cc4)c3c2)o1 (stereo not drawn)', 9),
  ('Nc1n[nH]c2ncc(-c3ccccc3)cc12', 28);

The value of %Inh recorded for `CCc1nc(-c2cccc(C)c2)c(-c2ccncc2)s1` when tested on MUSK reads 5

Param item: `COc1ccc(-n2cnc3c(N)ncnc32)cc1` ; param system: MUSK; output %Inh: 12

// assay MUSK, entry `O=C1NC(=O)C(c2ccccc2)=C1Nc1cccc(O)c1` , %Inh value = 8

Record `COc1cccc(C2=C(N(C)c3ccccc3)C(=O)NC2=O)c1` ; system MUSK; %Inh = 2

Hey, MUSK data for `Cc1ccc(Oc2ccc(Nc3ncnc4cc[nH]c34)cc2C)cn1` : %Inh came out at 0

MUSK %Inh of `CCCNC(=O)Nc1ccc(Oc2ncnc3ccn(C)c23)cc1` is 0

Recorded %Inh for `Nc1nc(-c2ccccc2F)c(-c2ccnc3ccccc23)s1` on MUSK was 0

Measured on MUSK, `CCC(=O)c1c(-c2ccccc2)c2cc(Cl)ccc2c(=O)n1Cc1ccc(C(=O)O)cc1` has a documented %Inh of 0

Test item `Cc1nc(N(C)[C@H]2CN(C(=O)CC#N)CC[C@H]2C)c2cc[nH]c2n1` ; MUSK; reported %Inh was 0

// %Inh (MUSK) for `O=C(NCCNc1ccnc(Nc2ccc(F)cc2)n1)Nc1ccc2c(c1)OCO2` = 0

Bench note, MUSK: `CCn1c(-c2ccoc2)nc2cnccc21` , %Inh reads 2

Log: MUSK, compound `CCS(=O)(=O)c1ccc(OC)c(Nc2ncc(-c3ccc(F)cc3)o2)c1.Cl` , %Inh = 2

###

Catalogue of compounds with associated %Inh
Test system: LOK
Construct: gene STK10
Details: concentration: 1 μM, replicates: in singlicate; n = 1
Numbers only; they are read as %.

Worked set:
INSERT INTO measurements (compound, measured_property, display_unit, readout_number) VALUES
  ('CCS(=O)(=O)c1ccc(OC)c(Nc2ncc(-c3ccc(F)cc3)o2)c1.Cl', '%Inh', '%', 0),
  ('COc1cccc(-n2cnc3c(N)ncnc32)c1', '%Inh', '%', 4),
  ('Cc1cc(Nc2nc(-c3cccc(C)n3)nc3ccccc23)ccn1', '%Inh', '%', 0),
  ('FC(F)(F)c1ccc(-c2ncn(CCCN3CCOCC3)c2-c2ccncc2)cc1', '%Inh', '%', 10);

According to the records, this compound COc1ccc(CNC(=O)NC2CCN(c3ccnc(Nc4ccc(F)cc4)n3)C2)cc1 (centres unmarked) displays %Inh of 0

###

Tested on: RPS6KA5(Kin.Dom.2-C-terminal)
Settings: concentration: 1 μM, replicates: in singlicate; n = 1
Listing of entries alongside the reported %Inh.
Numbers only; they are read as %.

Field: example entries. Status: answers known.
INSERT INTO measurements (cpd_smiles, readout_number) VALUES
  ('CN(C)c1cc(-c2ccc3c(N)n[nH]c3c2)nc(N)n1', 0),
  ('CCC(=O)c1c(-c2ccccc2)c2cc(Cl)ccc2c(=O)n1Cc1cc(C(=O)NC2CC2)n(C)n1', 1);

RPS6KA5(Kin.Dom.2-C-terminal) data for `Cc1nc(N(C)[C@H]2CN(C(=O)CC#N)CC[C@H]2C)c2cc[nH]c2n1` ; its %Inh: 9

# %Inh measured on RPS6KA5(Kin.Dom.2-C-terminal) for item `CCc1nc(-c2cccc(C)c2)c(-c2ccncc2)s1` = 18

Item: `Cc1ccc(Oc2ccc(Nc3ncnc4cc[nH]c34)cc2C)cn1` | System: RPS6KA5(Kin.Dom.2-C-terminal) | %Inh: 2

Readout %Inh for `Cc1c(Cn2c(C)nn3c(=O)cc(N4CCO[C@H](C)C4)nc23)cccc1C(F)(F)F` , test system RPS6KA5(Kin.Dom.2-C-terminal), was 15

# lookup: `COc1ccc(-c2cc3c(C)nc(N)nc3n([C@H]3CC[C@H](OCCO)CC3)c2=O)cn1` on RPS6KA5(Kin.Dom.2-C-terminal), %Inh = 0
